Ref: PubChem BioAssay (NCI)

Listed here: items and their measured TGI.
System: HS 578T breast
protocol-text: NCI tumour cell line growth inhibition, 48 h

{"columns": ["compound", "result-modifier", "TGI / µM"],
 "data": [
  ["Cc1nnc(N=Nc2c(O)[nH]c3ccccc23)[nH]c1=O", ">", 100],
  ["COc1ccc2c(c1)CCC(CN1CCN(CCOC(c3ccccc3)c3ccccc3)CC1)C2O (configuration not stated)", "=", 41.3],
  ["COc1ccc(C(=O)/C=C/c2ccc(OCCCCCCCCCCOc3ccc(/C=C/C(=O)c4ccc(OC)c(OC)c4)cc3)cc2)c(OC)c1", ">", 100],
  ["CC(=O)N=S(NC(=O)c1ccc(C)cc1)C(Cl)(Cl)Cl (configuration not stated)", ">", 100],
  ["CO[C@H](C)[C@](O)(C(=O)OCC1=CCN2CC[C@@H](O)[C@H]12)C(C)C", ">", 100],
  ["CC(Br)CN(CC(C)Br)c1ccc2c(c1)Cc1ccccc1-2 (configuration not stated)", "=", 41.7],
  ["C#CCn1cc(C=C2C(=O)NC(=S)NC2=O)c2cc(Cl)ccc21", "=", 7.6],
  ["O=C(Nc1nc2ccc(F)cc2s1)c1cccnc1Nc1ccc(Cl)cc1Cl", "=", 19.7],
  ["O=c1c2ccccc2c(=O)c2c1sc1c(=O)c3ccc(O)cc3c(=O)c12", "=", 0.973],
  ["CC(C)(C)C#CI1OC(=O)c2ccccc21", ">", 92.3],
  ["Fc1cccc(F)c1C1SCc2nc3cc(Cl)ccc3n21 (configuration not stated)", ">", 73.4],
  ["O=C(O)C(O)c1ccc(F)cc1 (configuration not stated)", ">", 100],
  ["O=C(O)Cn1c[n+](NC(=O)Cc2ccccc2)cn1", ">", 10],
  ["O=C(Nc1cccc(Cl)c1)c1cc(Cl)ccc1O", "=", 1.46],
  ["COc1ccc(C2NC(=S)NC3=C2COc2ccc(F)cc23)cc1OC (configuration not stated)", "=", 38.1],
  ["CC(C)c1ccc2c(c1)c(SC(C)(C)C)c(CC(C)(C)C(=O)O)n2Cc1ccc(Cl)cc1", "=", 29.4],
  ["COC(=O)[C@@H]1[C@H]2CC[C@]3(C)[C@@H](OC(C)=O)CC[C@H]3[C@@H]2CC[C@H]1C1(C)SCCS1", "=", 74.4],
  ["N=C(N)SCC(=O)O", ">", 100],
  ["CC[C@H](C)[C@H](NC(=O)N[C@@H](C)c1ccccc1)C(=O)N(C)[C@H](C[C@@H](OC(C)=O)c1nc(C(=O)N[C@@H](Cc2ccccc2)C[C@H](C)C(=O)OC)cs1)C(C)C", "=", 56.7],
  ["NCCn1c2c(c3ccccc3c1=O)C(=O)c1ccccc1-2", "=", 6.66],
  ["CC(=O)Nc1ccc2c(c1)nc1c3ccccc3ccn21", ">", 100],
  ["C/C(=C\\CO)CC[C@@H]1[C@@]2(C)CCCC(C)(C)[C@@H]2CC[C@@]1(C)O", "=", 56.4]
]}

---

Test system: SF-295 CNS
protocol-text: NCI tumour cell line growth inhibition, 48 h
outcome-measure: TGI

{"columns": ["molecule", "measured-result"],
 "data": [
  ["C=C1C[C@@H]2CC[C@@]34CC5O[C@H]6C(O[C@H]7CC[C@H](CC(=O)O[C@@H]8[C@@H](C)[C@@H]9O[C@@H]%10C[C@]%11(C[C@@H]%12O[C@]%13(C[C@H](C)[C@@H]%14O[C@@H]%15CC(C(COC(C)=O)OC(C)=O)O[C@@H]%15C[C@@H]%14O%13)C[C@H](C)[C@@H]%12O%11)O[C@@H]%10C[C@@H]9O[C@H]8CC8O[C@@H](CC[C@@H]1O2)C[C@@H](C)C8(O)CO)O[C@@H]7[C@@H]6O3)[C@H]5O4 (stereo not given in full)", "> 1 µM"],
  ["CCC(C)C(NC(=O)C(CCCC[N+](=N)N)NC(=O)C(CCCC[N+](=N)N)NC(=O)c1ccc(OC)cc1)C(=O)NC(CCCC[N+](=N)N)C(=O)N1CCCC1C(=O)NC(CCCCN)C(=O)NC(CC(C)C)C(N)=O (stereo not given)", "> 100 µM"],
  ["Cc1cc(Nc2cc(N3CCN(C)CC3)nc(C#Cc3ccccc3)n2)n[nH]1", "16.8 µM"],
  ["Cc1cc(C(=O)Nc2cc(Nc3ncccc3-c3ncnc4nc[nH]c34)ccc2F)cc(C(C)(C)C#N)c1", "> 100 µM"],
  ["O=C1C2=C(Nc3cc([N+](=O)[O-])ccc3N2)OC1c1ccc(C2OC3=C(Nc4ccc([N+](=O)[O-])cc4N3)C2=O)cc1 (stereo not given)", "77.3 µM"]
]}

---

Tested on: M14 melanoma
protocol-text: NCI tumour cell line growth inhibition, 48 h; in the data active = GI50 below about 0.43 µM; inactive = the rest
Outcome codes: T (active), F (inactive)

{"columns": ["molecule", "experimental-system", "assigned-category"],
 "data": [
  ["Cc1ccc(-c2cc(C(Cl)Cl)on2)cc1", "M14 melanoma", "F"],
  ["CCCCCCCCCCCCCCCCCCNC(=O)[C@H]1CSC(c2ccc(F)c(OC)c2)N1 (some centres undefined)", "M14 melanoma", "F"],
  ["COc1ccc(CNC(=O)c2ccc(-c3cc(-c4nnc(C)o4)ccc3C)cc2)cc1", "M14 melanoma", "F"],
  ["CC(C)(C)OC(=O)n1c(Cl)c(C(=O)N=C=S)c2ccccc21", "M14 melanoma", "F"],
  ["CCOc1cccc(/C=N/NC(=O)Cc2ccc(Nc3ccnc(C(F)(F)F)c3)cc2)c1O", "M14 melanoma", "F"],
  ["NCCNc1nc2ccccc2c2c(=O)c3cc(F)cc(Cl)c3sc12", "M14 melanoma", "F"],
  ["COc1cc(/C=C2\\C(=O)Nc3ccc(Br)cc32)cc(OC)c1OC", "M14 melanoma", "F"],
  ["Cc1ccc2c(C(C[N+](=O)[O-])c3ccco3)c(-c3ccccc3)[nH]c2c1 (centres undefined)", "M14 melanoma", "F"],
  ["COC12C=C/C(=C(/C(=O)OCc3csc(SC)n3)C(=O)CCCCCCCCC3(OC)C=C/C(=C(/C(=O)OCc4cnc(SC)s4)C(=O)CCCCCCCC1)O3)O2 (centres undefined)", "M14 melanoma", "F"],
  ["N#CC1=C(N)Oc2c(sc3c(Br)cccc23)C1c1ccc(F)cc1 (centres undefined)", "M14 melanoma", "T"],
  ["COc1ccc(-c2conc2-c2ccccc2)cc1", "M14 melanoma", "T"],
  ["O=c1c2ccccc2c(=O)c2c1sc1c(=O)c3ccc(O)cc3c(=O)c12", "M14 melanoma", "T"],
  ["C#CCn1cc(C=C2C(=O)NC(=S)NC2=O)c2cc(Cl)ccc21", "M14 melanoma", "F"],
  ["COc1ccc(-c2cn(-c3cc(OC)c(OC)c(OC)c3)c(=O)n2-c2ccccc2)cc1", "M14 melanoma", "F"]
]}

---

Tested on: OVCAR-8 ovarian
protocol-text: NCI tumour cell line growth inhibition, 48 h
Is TGI at least 20 µM? Then Y. If not, N.

{"columns": ["compound", "assigned-category"],
 "data": [
  ["Cc1ccc(S(=O)c2ccc([N+](=O)[O-])c3nonc23)cc1 (stereo unspecified)", "Y"],
  ["Cc1cc(C)c2nccc(NCCCN(C)C)c2c1[N+](=O)[O-]", "Y"],
  ["O=c1c2ccccc2c(=O)c2c1sc1c(=O)c3ccc(O)cc3c(=O)c12", "N"],
  ["CCc1ccc(OCc2ccccc2C(=O)Nc2ccc3nc(C)cc(N)c3c2)cc1", "N"],
  ["C[N+]1(CCCCN2c3ccccc3Sc3cc(N=[N+]=[N-])ccc32)CCN(C(=O)CCNC(=O)Cc2ccc(C(=O)c3ccccc3)cc2)CC1", "Y"],
  ["CC12O[Te]34OC1(C)C(C)(O3)C2(C)O4", "Y"],
  ["C=C(C[N+](C)(C)C)N/N=C/c1oc(-c2ccc(OC)c(OC)c2)c(-c2ccc(OC)c(OC)c2)c1[N+](=O)[O-]", "Y"],
  ["O=C(O)C(O)c1ccc(F)cc1 (stereo unspecified)", "Y"],
  ["C=CCN(N=O)C(=O)ON1C(=O)CCC1=O", "Y"],
  ["O=c1cccc2n1CC1CNCC2C1 (stereo unspecified)", "Y"],
  ["COc1cc2c(c(OC)c1OC)-c1ccc(SC)c(=O)cc1[C@@H](NC(=O)c1ccc(F)cc1)CC2", "N"],
  ["Cc1cc(C(=O)Nc2cc(Nc3ncccc3-c3ncnc4nc[nH]c34)ccc2F)cc(C(C)(C)C#N)c1", "Y"],
  ["BrC(Br)([P+](c1ccccc1)(c1ccccc1)c1ccccc1)[P+](c1ccccc1)(c1ccccc1)c1ccccc1", "Y"],
  ["COc1ccc2c(c1)-c1nc(=S)n(CCN(C)C)c3ccc([N+](=O)[O-])c(c13)N2", "N"],
  ["NCCNc1nc2ccccc2c2c(=O)c3cc(F)cc(Cl)c3sc12", "N"],
  ["N=C(N)SCC(=O)O", "Y"],
  ["COC(=O)C1=C(C(=O)OC)C(C(=O)OC)C(C(=O)OC)C(C(=O)OC)(C(=O)OC)C(C(=O)OC)=C1C(=O)OC (stereo unspecified)", "Y"],
  ["Cc1nnc(N=Nc2c(O)[nH]c3ccccc23)[nH]c1=O", "Y"],
  ["O=C(Nc1nc2ccc(F)cc2s1)c1cccnc1Nc1ccc(Cl)cc1Cl", "Y"],
  ["Nc1cc2nc(-c3ccccc3)cn2cn1", "Y"],
  ["COC(=O)Cc1c2n(c3ccccc13)C(=O)N1c3ccccc3C(CC(=O)OC)C21 (stereo unspecified)", "Y"]
]}
